Hello, the source for this data is the NIST ThermoML archive (doi:10.1016/j.fluid.2016.09.021), in case you need it.

Conditions: 468 K; 40000 kPa; Liquid; Vibrating tube method
Could you please report measured mass density for the items listed next?
One number for each entry, in kg/m3.

Guide cases for mass density, answers given:
structure_smiles=c1ccccc1 numeric_readout=750.3
structure_smiles=Cc1ccccc1 numeric_readout=759.3
structure_smiles=CCCCCCCCCCCC numeric_readout=672.8

// next item, mass density requested
mass density for CCCCCCC ?
601.3

* * *

Settings: 413 K; 5000 kPa; Liquid; Vibrating tube method
± gives the expanded uncertainty stated by the source.
Answer each item with its documented mass density.

Reference set (3 entries):
structure_smiles=Cc1ccccc1 result="758.3 ± 2.1 kg/m3"
structure_smiles=CCCCCCCCCCCC result="666.9 ± 2.1 kg/m3"
structure_smiles=CCCCCCC result="582.1 ± 2 kg/m3"

mass density lookup needed for c1ccccc1 , thanks.
748.8 ± 2.1 kg/m3

* * *

Details: 293 K; 5000 kPa; Liquid; Vibrating tube method
What mass density was measured for each of the following?
One number for each entry, in kg/m3.

structure_smiles=CCCCCCCCCCCC unit_tag=kg/m3 numeric_readout=754.2
structure_smiles=CCCCCCC unit_tag=kg/m3 numeric_readout=689.8
structure_smiles=Cc1ccccc1 unit_tag=kg/m3 numeric_readout=873.2

// next entry
Quick check: mass density of c1ccccc1 ?
879.6

* * *

Conditions: 313 K; 40000 kPa; Liquid; Vibrating tube method
Measurement Type: mass density (kg/m3)
Answers are plain numbers, in kg/m3.

compound="CCCCCCC [heptane]" measurement_type="mass density" numeric_readout=702.2

Would you mind listing mass density for each of the following compounds?
1. Cc1ccccc1 [toluene]
2. CCCCCCCCCCCC [dodecane]
3. c1ccccc1 [benzene]

1. 879
2. 761.8
3. 885.2

* * *

Can you tell me mass density for the items I'm about to list?
Conditions: 413 K; 30000 kPa; Liquid; Vibrating tube method
Answers are plain numbers, in kg/m3.

structure_smiles=Cc1ccccc1 measurement_type="mass density" unit_tag=kg/m3 numeric_readout=791.3
structure_smiles=c1ccccc1 measurement_type="mass density" unit_tag=kg/m3 numeric_readout=786.2
structure_smiles=CCCCCCCCCCCC measurement_type="mass density" unit_tag=kg/m3 numeric_readout=694.9

What does the data say about its mass density? Entry: CCCCCCC
626

* * *

Please respond with reported mass density for every item in the list.
Conditions: 373 K; 40000 kPa; Liquid; Vibrating tube method
Numbers only, in kg/m3.

# count of solved cases: 3
structure_smiles=CCCCCCCCCCCC measurement_type="mass density" unit_tag=kg/m3 numeric_readout=726
structure_smiles=c1ccccc1 measurement_type="mass density" unit_tag=kg/m3 numeric_readout=832.3
structure_smiles=Cc1ccccc1 measurement_type="mass density" unit_tag=kg/m3 numeric_readout=832

Look up mass density: CCCCCCC
663.6

* * *

Could you please report measured mass density for the items listed next?
Conditions: 448 K; 40000 kPa; Liquid; Vibrating tube method
Give bare numbers, in kg/m3.

structure_smiles=Cc1ccccc1 unit_tag=kg/m3 numeric_readout=774.7
structure_smiles=CCCCCCC unit_tag=kg/m3 numeric_readout=614.4
structure_smiles=CCCCCCCCCCCC unit_tag=kg/m3 numeric_readout=684

Name the reported mass density value associated with the compound c1ccccc1
767.8

* * *

Conditions: 313 K; 30000 kPa; Liquid; Vibrating tube method
Measurement Type: mass density (kg/m3)
One number for each entry, in kg/m3.

structure_smiles=Cc1ccccc1 numeric_readout=872.9
structure_smiles=CCCCCCCCCCCC numeric_readout=756.3

Go through the list and state mass density for each entry.
1. CCCCCCC
2. c1ccccc1

695.4
878.7
